Origin of values: paper PMC9482650

- tgt: DLG2_2, Q15700
- Sequence (Q15700 189-283): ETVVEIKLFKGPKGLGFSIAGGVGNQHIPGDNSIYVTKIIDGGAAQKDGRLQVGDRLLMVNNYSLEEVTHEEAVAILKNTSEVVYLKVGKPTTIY
- procedureText: holdup assay
- Set-up: key: below the threshold = too weak to quantify, mostly under pKd 3.1 to 4
- conditionSet: plain residues with an end cap or a label only (N-terminal biotin on a linker: ahx)
parameterMeasured: pKd

QPRTWLQSPV [RTKN, Q9BST9] = 4.71
QNTDDVQTSF [ACE2, Q9BYF1] = below the threshold
APSRKLNTEI [TIAM1, Q13009] = below the threshold
TEAKLTETNA [MYO18A, Q92614] = below the threshold
